The reported measurements were obtained from the nanobody polyreactivity screen of Harvey et al. (2022).

- assay method text: yeast display, Sf9 membrane polyspecificity reagent, FACS + sequencing; frameworks hold sequencing errors
observed property: polyreactivity (PSR sort gate)

Take a look at these entries with their results.
seq text | observed result
QVQLVESGGGLVQAGGSLRLSCAASGFTFYPNTMGWYRQAPGKERELVAAISSSGGRTYYADSVKGRFTISRDNAKNTVYLQMNSLKPEDTAVYYCNAAKWLTSGGLDYWGLGTQVTVSS | high polyreactivity
QVQLVESGGGLVQAGGSLRLSCAASGSTFAIYAMGWYRQAPGKERELVASISGGSTNYADSVKGRFTISRDNAKNTVYLQMNSLKPEDTAVYYCAARGALHHWYSYDYWGQGTQVTVSS | low polyreactivity
QVQLVESGGGLVQAGGSLRLSCAASGSTFSLNDMGWYRQAPGKERELVAVISSSTGITYYADSVKGRFTISRDNAKNTVYLQMNSLKPEDTAVYYCNADKWEVYYTRMYYWGQGTQVTVSS | low polyreactivity
QVQLVESGGGLVQAGGSLRLSCAASGSIFIYYAMGWYRQAPGKERELVAAISWSGGDTYYADSVKGRFTISRDNAKNTVYFHMNILKPEDTAVYYCNADYYPYYPYTAWDTVLTHDEYWGQGTQVTVSS | low polyreactivity

Please examine the following record next.
polyreactivity (PSR sort gate) lookup needed for "QVQLVESGGGLVQAGGSLRLSCAASGNIFRTYAMGWYRQAPGKERELVAAISRGGRTYYADSVKGRFTISRDNAKNSVYLQMNSLKPVDTAVYYCNVQPDRISRYDYWGQGTQVTVSS" , thanks.
high polyreactivity

* * *

- assay method text: yeast display, Sf9 membrane polyspecificity reagent, FACS + sequencing; frameworks hold sequencing errors
observed property: polyreactivity (PSR sort gate)

seq text | observed property | observed result
QVQLVESGGGLVQAGGSLRLSCAASGSIFRYNTMGWYRQAPGKERELVARISSGGSTYYADSVKGRFTISRDNAKNTVYLQMNSLKPEDTAVYYCAAVSRHRGWDRYYWGQGTQVTVSS | polyreactivity (PSR sort gate) | high polyreactivity
QVQLVESGGGLVQAGGSLRLSCAASGTTFVSYSMGWYRQAPGKEREFVATISISGTSTYYADSVKGRFTISRDNAKNTVYLQMISLKPEDTAVYYCAARLRRRGATQFYRYDYWGQGTQVTVSS | polyreactivity (PSR sort gate) | high polyreactivity

* * *

- assay method text: yeast display, Sf9 membrane polyspecificity reagent, FACS + sequencing; frameworks hold sequencing errors
observed property: polyreactivity (PSR sort gate)

Completed entries (count: 5):
seq text | polyreactivity (PSR sort gate)
QVQLVESGGGLVQAGGSLRLSCAASGRIFKYYAMGWYRPAPGNETELVAAIRWSDSTYYADSVKGRFTSSRDNAKNTVYLQMNSLQPEDTAVYYCAALYRHPQEYRVGDYDYWGQGTQVTVSS | low polyreactivity
QVQLVESGGGLVQAGGSVRLSCAASGSTSAYAMGWYRQAPGKEREFVAAIRFSAGSTYYADSVKGRFTISRDNAKNTVYLQMNSLKPEDTAVYYCAASYSVIFGYFPDYYWVVEYDYWGQGTQVTVSS | high polyreactivity
QVQLVESGGGLVQAGGSLRLSCAASGRTFGTNTMGWYRPAPGKERELVAAISRSGVRTYYADSVKGRFTISRDNAKNTVYLQMKSLKPEDTAVYYCATDYKVHGFDYWGQGTQVTVSS | high polyreactivity
QVQLVESGGGLVQAGGSLRLSCAASVRIFRINTMGWYRQAPGKERELVAAIRTSGSSTYADSVKGRFTISRDNAKNTVYLQMNSLKPEDTAVYYCNTKYPGRGYYWGQGTQVTVSS | high polyreactivity
QVQLVESGVGLVQAGGSLRLSCAASGNIFGVYAMGWYRQAPGKERELVATITTGGSTYYADSVKGRFTISRDNAKNTVYLQMNSLKPEDSAVYYCAADVGGGNYVYYGNDYDDGYWGQGTQVTVSS | low polyreactivity

Looking for the measured polyreactivity (PSR sort gate) of "QVQLVESGGGLVQAGGSLRLSCAASGRTFGPYTMGWYRQAPGKERELVATIRSDNTYYADSVKGRFTISRDNAKNTVYLQMNSLKPEDTAVYYCNAGYYSRYSYPYKYYYWGQGTQVTVSS" , can you help?
high polyreactivity
